Biological target: Mas-related G-protein coupled receptor member X2 (Homo sapiens)
Sequence (Q96LB1 whole entry): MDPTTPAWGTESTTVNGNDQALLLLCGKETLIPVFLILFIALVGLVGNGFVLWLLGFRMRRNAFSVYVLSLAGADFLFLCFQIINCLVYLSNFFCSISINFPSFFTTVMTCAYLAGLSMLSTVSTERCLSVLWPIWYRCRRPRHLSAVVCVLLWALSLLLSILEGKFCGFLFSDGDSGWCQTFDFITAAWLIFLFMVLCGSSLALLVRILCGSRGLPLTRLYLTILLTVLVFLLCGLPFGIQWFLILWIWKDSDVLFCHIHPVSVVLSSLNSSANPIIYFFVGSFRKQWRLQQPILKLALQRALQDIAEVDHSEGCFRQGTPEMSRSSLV
Experiment: Affinity On-target Cellular interaction (PRESTO-Tango concentration response assay (by the NIMH-PDSP)) EUB0000345a MRGPRX2
REPORTED ENDPOINT: EC50

MOLECULE: CN(C)[C@H]1CCN(c2cc(-c3ccccc3)nc3ccnn23)C1 [(S)-ZINC-3573]
REPORTED ENDPOINT: EC50
RESULT: > 100 µM

* * *

target: D(4) dopamine receptor (Homo sapiens, UniProt P21917); experiment: Affinity On-target Cellular interaction (Fluorometric Imaging Plate Reader (FLIPR) Assay (agonist activity at human D4.4 receptor in HEK293 cells coexpressing G-alpha-qo5)) EUB0000332a DRD4
Sequence (P21917 whole entry): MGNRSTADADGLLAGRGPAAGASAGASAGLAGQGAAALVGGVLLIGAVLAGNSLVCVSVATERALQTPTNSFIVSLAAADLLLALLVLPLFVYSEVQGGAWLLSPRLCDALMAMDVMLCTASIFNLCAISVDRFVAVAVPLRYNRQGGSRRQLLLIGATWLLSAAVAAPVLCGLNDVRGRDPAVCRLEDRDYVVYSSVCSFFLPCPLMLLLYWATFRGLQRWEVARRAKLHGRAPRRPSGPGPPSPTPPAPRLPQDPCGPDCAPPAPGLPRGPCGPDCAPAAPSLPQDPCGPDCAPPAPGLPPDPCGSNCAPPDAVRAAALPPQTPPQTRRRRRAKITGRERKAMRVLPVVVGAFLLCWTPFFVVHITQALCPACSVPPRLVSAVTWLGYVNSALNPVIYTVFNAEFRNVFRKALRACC
pEC50: −log10 of the molar value.

SMILES REPRESENTATION: CSc1cccnc1N1CCN(Cc2nc3ccccc3[nH]2)CC1
pEC50: < 5.00

* * *

biological target: UniProt Q8TEK3; assay: Affinity On-target Cellular interaction (Western Blot (reduction of H3K79 dimethylation in A431 cells by DOT1L)) EUB0000216b DOT1L
Sequence (Q8TEK3 whole entry): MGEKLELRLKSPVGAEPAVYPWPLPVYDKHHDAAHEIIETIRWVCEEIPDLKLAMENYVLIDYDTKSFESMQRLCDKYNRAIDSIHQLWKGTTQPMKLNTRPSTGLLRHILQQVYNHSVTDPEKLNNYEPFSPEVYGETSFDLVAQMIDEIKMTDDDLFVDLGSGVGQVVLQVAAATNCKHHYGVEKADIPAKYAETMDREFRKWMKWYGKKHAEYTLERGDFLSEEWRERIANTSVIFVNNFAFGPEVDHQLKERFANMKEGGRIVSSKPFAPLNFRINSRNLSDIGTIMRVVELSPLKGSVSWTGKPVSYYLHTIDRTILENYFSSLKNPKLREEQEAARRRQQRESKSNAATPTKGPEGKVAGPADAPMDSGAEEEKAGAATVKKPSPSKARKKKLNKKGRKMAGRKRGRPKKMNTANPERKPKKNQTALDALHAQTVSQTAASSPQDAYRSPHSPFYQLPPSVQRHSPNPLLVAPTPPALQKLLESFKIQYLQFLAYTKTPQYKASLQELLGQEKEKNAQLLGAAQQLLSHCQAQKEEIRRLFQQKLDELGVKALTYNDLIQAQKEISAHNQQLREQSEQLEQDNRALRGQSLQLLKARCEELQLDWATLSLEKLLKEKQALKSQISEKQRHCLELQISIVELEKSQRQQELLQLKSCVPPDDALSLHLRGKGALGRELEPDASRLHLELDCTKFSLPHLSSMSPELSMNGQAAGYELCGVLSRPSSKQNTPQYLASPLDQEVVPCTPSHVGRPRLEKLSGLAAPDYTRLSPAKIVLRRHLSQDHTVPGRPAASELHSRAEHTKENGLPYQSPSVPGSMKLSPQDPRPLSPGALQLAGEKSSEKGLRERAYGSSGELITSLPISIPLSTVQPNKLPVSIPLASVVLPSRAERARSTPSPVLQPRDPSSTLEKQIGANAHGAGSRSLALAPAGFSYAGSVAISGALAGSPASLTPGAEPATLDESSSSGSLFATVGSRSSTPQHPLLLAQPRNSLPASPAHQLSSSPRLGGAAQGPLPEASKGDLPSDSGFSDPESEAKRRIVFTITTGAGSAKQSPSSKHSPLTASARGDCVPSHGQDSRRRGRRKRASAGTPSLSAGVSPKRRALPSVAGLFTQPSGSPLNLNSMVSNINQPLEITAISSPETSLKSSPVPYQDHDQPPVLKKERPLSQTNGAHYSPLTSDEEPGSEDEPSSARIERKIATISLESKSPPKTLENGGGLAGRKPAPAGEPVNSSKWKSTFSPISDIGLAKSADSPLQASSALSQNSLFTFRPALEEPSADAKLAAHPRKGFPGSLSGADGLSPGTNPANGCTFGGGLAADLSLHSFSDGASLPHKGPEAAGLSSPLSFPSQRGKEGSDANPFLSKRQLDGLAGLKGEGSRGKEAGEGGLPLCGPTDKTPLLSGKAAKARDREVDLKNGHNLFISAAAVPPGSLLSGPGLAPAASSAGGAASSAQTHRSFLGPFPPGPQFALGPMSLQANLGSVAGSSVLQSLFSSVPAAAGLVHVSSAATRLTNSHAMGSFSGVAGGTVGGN
pIC50: −log10 of the molar value.

SMILES REPRESENTATION: CC(C)N(CCCNC(=O)Nc1ccc(C(C)(C)C)cc1)C[C@H]1O[C@@H](n2cc(Br)c3c(N)ncnc32)[C@H](O)[C@@H]1O
pIC50: 8.59
